// values below are reported IC50
biological target: human DNA pol β (Homo sapiens, UniProt P06746); assay: Reporter-strand displacement assay, 1536-well format, pol β; conditions: IC50 against pol β, approximate value

O=C(O)C1=CC(=C(c2ccc(O)c(C(=O)O)c2)c2ccc(O)c(C(=O)O)c2)C=CC1=O : ~20 nM

# input for lookup
Please look up its IC50: "O=c1oc2c(O)c(O)cc3c(=O)oc4c(O)c(O)cc1c4c23" ~20 nM
